# Procedure details: Pharmacokinetics of rats, single intravenous and oral administration, plasma
# Assay type: in vivo
# Measurement parameters: rat; male SD rats, intravenous 0.3 mg/kg, plasma
Property: Cmax (ng/mL)

| Given smiles | Property | Reported result |
| --- | --- | --- |
| Cc1cc2c(c(C)c1NC(=O)CC(C)(C)C)CCN(c1ccc(F)cc1F)C2 | Cmax | 352 |
| Cc1cc2c(c(C)c1NC(=O)CC(C)(C)C)CCN(c1ccc(F)cc1)C2 | Cmax | 332 |
| Cc1cc2c(c(C)c1NC(=O)CC1(C)CC1)CCN(c1ccc(F)cc1)C2 | Cmax | 345 |

###

# Procedure details: Pharmacokinetics of mice, single intravenous and oral administration, plasma
# Assay type: in vivo
# Measurement parameters: mouse, po; male ICR mice, gavage 10 mg/kg, plasma

| Given smiles | AUC(0-t) |
| --- | --- |
| Cc1cc2c(c(C)c1NC(=O)CC1(C)CC1)CCN(c1ccc(F)cc1F)C2 | 693 ng·h/mL |
| Cc1cc2c(c(C)c1NC(=O)CC(C)(C)C)CCN(c1ccc(F)cc1)C2 | 792 ng·h/mL |
| Cc1cc2c(c(C)c1NC(=O)CC1(C)CC1)CCN(c1ccc(F)cc1)C2 | 528 ng·h/mL |
| Cc1cc2c(c(C)c1NC(=O)CC1(C)CC1)CCN(c1ccc(C(F)(F)F)cc1)C2 | 5990 ng·h/mL |
| Cc1cc2c(c(C)c1NC(=O)CC(C)(C)C)CCN(c1ccc(F)cc1F)C2 | 1400 ng·h/mL |

###

# Procedure details: Pharmacokinetics of mice, single intravenous and oral administration, plasma
# Assay type: in vivo
# Measurement parameters: mouse, po; male ICR mice, gavage 10 mg/kg, plasma
Property: log10(half-life) (log10 of the value in h)

| Given smiles | log10(half-life) |
| --- | --- |
| Cc1cc2c(c(C)c1NC(=O)CC1(C)CC1)CCN(c1ccc(C(F)(F)F)cc1)C2 | 1.93 |
| Cc1cc2c(c(C)c1NC(=O)CC1(C)CC1)CCN(c1ccc(F)cc1F)C2 | 0.26 |
| Cc1cc2c(c(C)c1NC(=O)CC(C)(C)C)CCN(c1ccc(F)cc1)C2 | 0.42 |
| Cc1cc2c(c(C)c1NC(=O)CC1(C)CC1)CCN(c1ccc(F)cc1)C2 | 0.59 |
| Cc1cc2c(c(C)c1NC(=O)CC(C)(C)C)CCN(c1ccc(F)cc1F)C2 | 0.42 |

###

# Procedure details: Pharmacokinetics of mice, single intravenous and oral administration, plasma
# Format: in vivo
# Measurement parameters: mouse, po; male ICR mice, gavage 10 mg/kg, plasma

| Given smiles | Cmax |
| --- | --- |
| Cc1cc2c(c(C)c1NC(=O)CC1(C)CC1)CCN(c1ccc(F)cc1F)C2 | 374 ng/mL |
| Cc1cc2c(c(C)c1NC(=O)CC1(C)CC1)CCN(c1ccc(C(F)(F)F)cc1)C2 | 315 ng/mL |
| Cc1cc2c(c(C)c1NC(=O)CC1(C)CC1)CCN(c1ccc(F)cc1)C2 | 192 ng/mL |
| Cc1cc2c(c(C)c1NC(=O)CC(C)(C)C)CCN(c1ccc(F)cc1)C2 | 142 ng/mL |
| Cc1cc2c(c(C)c1NC(=O)CC(C)(C)C)CCN(c1ccc(F)cc1F)C2 | 776 ng/mL |

These data points were gathered from patent US20230077155A1.
